Listed next: entries and their corresponding inhibition.
TARGET_OR_SYSTEM: G/T mismatch-specific thymine DNA glycosylase (Homo sapiens);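 note: human TDG cleavage of quenched duplex DNA oligonucleotides coupled to APE1, strand release read as fluorescence at 594 nm, inhibition of TDG activity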
CONDITION_DETAILS: Compound Concentration 10.0 uM, Hit No
Description: Inhibition of TDG by quantifying inhibition of TDG-mediated cleavage and dissociation of quenched duplex DNA oligonucleotides, measured as fluorescence at 594 nm. To generate a functional strand incision and increase turn-over this assay is coupled to APE1.
QUANTITY_NAME: inhibition (%)

molecule=N#Cc1cccc(C(=O)Nc2cc(-c3ccccc3)nn2-c2ccccc2)c1 quantity_name=inhibition recorded_result=-2.1
molecule="COC(=O)C1=C(C)NC(C)=C(C(=O)OC(C)C)C1c1cccc2nonc12 (stereo unspecified)" quantity_name=inhibition recorded_result=5.72
molecule=CN([C@@H]1CCc2c(CC(=O)O)c3ccccc3n2C1)S(=O)(=O)c1ccc(F)cc1 quantity_name=inhibition recorded_result=9.01
molecule=CN(C)CC[C@@H](c1ccc(Cl)cc1)c1ccccn1 quantity_name=inhibition recorded_result=6.86
molecule=COc1ccc2c(c1)O[C@@H](c1ccc(OC)c(OC)c1)C[C@H]2NC(=O)C1(c2ccc3c(c2)OC(F)(F)O3)CC1 quantity_name=inhibition recorded_result=25.6
molecule=CN(C)CCn1cc(S(=O)(=O)c2cccc(F)c2)c2cccnc21 quantity_name=inhibition recorded_result=2.84
molecule=Cc1cccc(NC(=O)N[C@@H]2N=C(c3ccccc3)c3ccccc3N(C)C2=O)c1 quantity_name=inhibition recorded_result=12.3
molecule=S=C(NCCCc1c[nH]cn1)NCCCN(Cc1ccc(Cl)c(Cl)c1)c1ccc(Br)cn1 quantity_name=inhibition recorded_result=-1.74
molecule=CC(C)c1noc(N2CCC(COc3ccc(-c4ccc(S(C)(=O)=O)cc4)nc3)CC2)n1 quantity_name=inhibition recorded_result=3
molecule=O=c1c2cccn2c2ccccc2n1CCCN1CCC(c2ccc(Cl)cc2)CC1 quantity_name=inhibition recorded_result=2.78
molecule=CN1CCN(c2ccc(/C=C(\C#N)c3ccccc3Br)cc2)CC1 quantity_name=inhibition recorded_result=42.1
molecule=NC(=O)NN=Cc1ccc(Oc2ccc(F)cc2)cc1 quantity_name=inhibition recorded_result=11.3
molecule=C[C@H](NC(=O)c1cnc2n1[C@](C)(Cc1ccc(C#N)cc1)C(=O)N2c1cc(Cl)c(F)c(Cl)c1)C(=O)NC1(c2ccccn2)CC1 quantity_name=inhibition recorded_result=52.5
molecule=CCC(C)(C)/N=C(\NC#N)Nc1cccnc1 quantity_name=inhibition recorded_result=5.61
molecule=O=C(O)c1ccc(C(=O)N[C@@H](c2ccc(OC(F)(F)F)c(F)c2)c2ncccc2F)nc1 quantity_name=inhibition recorded_result=8.79
molecule=N#Cc1ccc(Cn2ccc(NC(=O)Cc3ccc(C4(C(F)(F)F)CC4)cc3)n2)nc1 quantity_name=inhibition recorded_result=-8.44
molecule="CN(C(=O)Cc1ccc(Cl)c(Cl)c1)C(CN1CCCC1)c1cccc(OCC(=O)O)c1 (stereo unspecified)" quantity_name=inhibition recorded_result=-1.52
molecule=CO[C@@H](C)c1c(Nc2ccc([C@@H](N(C)C(=O)C3CCS(=O)(=O)CC3)C(F)(F)F)cc2)cnc2cc(Cl)nn12 quantity_name=inhibition recorded_result=42.7
molecule=CCCNC(=O)c1nnc2c(-c3c(F)cccc3OC)cccc2c1N quantity_name=inhibition recorded_result=24.5
molecule="COc1cc(N)c(Cl)cc1C(=O)NC1CN2CCC1CC2 (stereo unspecified)" quantity_name=inhibition recorded_result=-0.441
molecule=CSCC[C@H](NC(=O)[C@H](Cc1ccccc1)NC(=O)[C@H](Cc1c[nH]cn1)NC(=O)CNC(=O)[C@@H](NC(=O)[C@H](C)NC(=O)[C@H](Cc1c[nH]c2ccccc12)NC(=O)[C@H](CC(C)C)NC(=O)[C@H](CC(N)=O)NC(=O)CN)[C@@H](C)O)C(N)=O quantity_name=inhibition recorded_result=-7.68
molecule=Cc1ccc2c(c1)c1c(n2CCc2ccc(C)nc2)CCN(C)C1 quantity_name=inhibition recorded_result=-5.76
molecule="Cn1c(-c2csc(C3CCN(CC4=NC5N=CC=CC5N4)CC3)n2)nc2ccccc21 (stereo unspecified)" quantity_name=inhibition recorded_result=20.6
molecule=Cn1ncnc1COc1nn2c(-c3cc(F)ccc3F)nnc2cc1C(C)(C)C quantity_name=inhibition recorded_result=6.81
molecule=Cc1cn2cc(CC(=O)N3CCC4(CC3)CN(Cc3ccc(-n5nccn5)cc3Cl)C4)nc2s1 quantity_name=inhibition recorded_result=-1.26
molecule="CCN(Cc1ccncc1)C(=O)C(CO)c1ccccc1 (stereo unspecified)" quantity_name=inhibition recorded_result=7.61
molecule=COc1cc(-c2cn[nH]c2)ccc1C(=O)Nc1ccc2c(c1)CCNCC2 quantity_name=inhibition recorded_result=37.4
molecule="O=C(N[C@H]1CCCCC/C=C\\C2C[C@@]2(C(=O)O)NC(=O)[C@@H]2C[C@@H](Oc3ccncc3)CN2C1=O)OC1CCCC1 (stereo partly specified)" quantity_name=inhibition recorded_result=61.5
molecule=CN(c1ncccc1CNc1ccnc(-c2nc3c(F)c(Cl)ccc3[nH]2)n1)S(C)(=O)=O quantity_name=inhibition recorded_result=35.5
molecule=C(#Cc1cccc(CN2CCOCC2)c1)CCN1CCCCC1 quantity_name=inhibition recorded_result=-1.72
molecule=CNC(=O)c1ccc(Nc2ncc(C(F)(F)F)c(NCc3nccnc3N(C)S(C)(=O)=O)n2)cc1 quantity_name=inhibition recorded_result=100
